# Tested on: Salmonella typhi
# experimental protocol: Antibacterial activity against Salmonella typhi MTCC 733 assessed as growth inhibition at 100 ug/mL after 14 hrs by cup plate method
# Format: functional, Salmonella enterica subsp. enterica serovar Typhi
# condition parameters: Salmonella enterica, MTCC 733, 14 h; read-out: DIZ
Assign zone of inhibition at 100 µg/mL to each entry below.
Answer format: numeric, mm implied, no suffix.

-- ask Field request: zone of inhibition at 100 µg/mL | item: Cc1cc(=O)oc2cc(OCCCCCCn3cc(CN4CCCC4)nn3)ccc12
-- reply 15.2

-- ask Fill in: zone of inhibition at 100 µg/mL of Cc1cc(=O)oc2cc(OCCCCCCn3cc(CN4CCN(C)CC4)nn3)ccc12 is ___
-- reply 13.1

-- ask Any idea what zone of inhibition at 100 µg/mL was measured for CC(=O)N1CCN(Cc2cn(CCCCCCOc3ccc4c(C)cc(=O)oc4c3)nn2)CC1 ?
-- reply 12.1

-- ask State the recorded zone of inhibition at 100 µg/mL for this entry: Cc1cc(=O)oc2cc(OCCCCCCn3cc(CN4CCOCC4)nn3)ccc12
-- reply 13.5

-- ask Which zone of inhibition at 100 µg/mL reading was recorded for the compound Cc1cc(=O)oc2cc(OCCCCn3cc(CN4C(=O)c5ccccc5C4=O)nn3)ccc12 ?
-- reply 12.2

###

# System: Klebsiella pneumoniae
# experimental protocol: Antibacterial activity against Klebsiella pneumoniae MTCC 432 assessed as growth inhibition at 100 ug/mL after 14 hrs by cup plate method
# Type: functional
# condition parameters: MTCC 432, 14 h, read-out: DIZ
Assign zone of inhibition at 100 µg/mL to each entry below.
Give me the value, and tack the unit on after it.

-- ask Which zone of inhibition at 100 µg/mL value is on record for Cc1cc(=O)oc2cc(OCCCCCCn3cc(CN4CCOCC4)nn3)ccc12 ?
-- reply 14.6 mm

-- ask Look up zone of inhibition at 100 µg/mL: Cc1cc(=O)oc2cc(OCc3cn(CCN4C(=O)c5ccccc5C4=O)nn3)ccc12
-- reply 13.3 mm

-- ask Return reported zone of inhibition at 100 µg/mL; argument: Cc1cc(=O)oc2cc(OCc3cn(CCCN4C(=O)c5ccccc5C4=O)nn3)ccc12
-- reply 14.4 mm

-- ask Consider the compound Cc1cc(=O)oc2cc(OCCCCN=[N+]=[N-])ccc12 and give its measured zone of inhibition at 100 µg/mL.
-- reply 12.5 mm

###

Record form. Attribute: zone of inhibition at 100 µg/mL. Fill in for each entry.
# Test system: Staphylococcus aureus
# experimental protocol: Antibacterial activity against Staphylococcus aureus MTCC 096 assessed as growth inhibition at 100 ug/mL after 14 hrs by cup plate method
# Type: functional
# condition parameters: MTCC 096, 14 h, read-out: DIZ

-- ask Quick one: zone of inhibition at 100 µg/mL for Cc1cc(=O)oc2cc(OCc3cn(CCCCCN4C(=O)c5ccccc5C4=O)nn3)ccc12 ?
-- reply 12.5 mm

-- ask State the recorded zone of inhibition at 100 µg/mL for this entry: Cc1cc(=O)oc2cc(OCCCCCCn3cc(CN4C(=O)c5ccccc5C4=O)nn3)ccc12
-- reply 12.9 mm

-- ask Would you kindly share the measured zone of inhibition at 100 µg/mL for Cc1cc(=O)oc2cc(OCc3cn(CCCCN4C(=O)c5ccccc5C4=O)nn3)ccc12 ?
-- reply 12.6 mm

-- ask What value of zone of inhibition at 100 µg/mL has been reported for the following compound? Cc1cc(=O)oc2cc(OCCCCCCn3cc(CN4CCN(C)CC4)nn3)ccc12
-- reply 12.5 mm

Values from ChEMBL document CHEMBL3232789
